// IC50 collected for Thymidylate synthase (Homo sapiens, UniProt P04818)

As a guide, the following entries are already answered.
Nc1nc(N)c(CCCNc2ccc(C(=O)N[C@@H](CCC(=O)O)C(=O)O)cc2)c(O)n1    > 100 µM
Nc1nc(O)c2cc(NCc3ccc(C(=O)NC(CCC(=O)O)C(=O)O)cc3)cnc2n1 (stereo not given)    7.1 µM
Nc1nc(O)c2c(n1)NCC(CCc1ccc(C(=O)NC(CCC(=O)O)C(=O)O)cc1)C2 (stereo not given)    > 1000 µM
CN(Cc1ccc(C(=O)NC(CCC(=O)O)C(=O)O)cc1)C1CNc2nc(N)nc(O)c2C1 (stereo not given)    > 100 µM

From here, focus on the item given below.
Lab note: need IC50 for Nc1nc(O)c2c(n1)NCC(NCc1ccc(C(=O)NC(CCC(=O)O)C(=O)O)cc1)C2 (stereo not given) on Thymidylate synthase (Homo sapiens, UniProt P04818), anyone have it?
> 100 µM

----------
tested.on: Bifunctional purine biosynthesis protein ATIC (Homo sapiens)
Sequence (P31939 whole entry): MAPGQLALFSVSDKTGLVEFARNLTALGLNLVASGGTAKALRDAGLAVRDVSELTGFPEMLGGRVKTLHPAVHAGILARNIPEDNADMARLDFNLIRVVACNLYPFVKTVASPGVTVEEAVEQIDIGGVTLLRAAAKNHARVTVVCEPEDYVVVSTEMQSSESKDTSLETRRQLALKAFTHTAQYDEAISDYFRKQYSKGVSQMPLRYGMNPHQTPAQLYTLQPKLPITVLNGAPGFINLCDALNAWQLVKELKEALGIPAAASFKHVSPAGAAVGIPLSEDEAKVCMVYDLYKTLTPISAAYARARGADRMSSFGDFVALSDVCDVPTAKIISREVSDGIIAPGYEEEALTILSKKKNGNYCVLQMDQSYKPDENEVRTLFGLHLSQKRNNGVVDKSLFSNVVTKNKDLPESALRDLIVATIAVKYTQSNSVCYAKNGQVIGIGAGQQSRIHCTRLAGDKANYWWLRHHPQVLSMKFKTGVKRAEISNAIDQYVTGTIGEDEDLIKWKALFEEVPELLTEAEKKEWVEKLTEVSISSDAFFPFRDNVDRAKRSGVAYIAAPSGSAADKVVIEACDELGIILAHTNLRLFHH
experiment.description: Inhibition of 5-aminoimidazole-4-carboxamide AICAR formyltransferase in MOLT-4 cells
measurement.context: read-out: I50
property.name: IC50 (µM)

Nc1nc(O)c2cc(N(C=O)Cc3ccc(C(=O)NC(CCC(=O)O)C(=O)O)cc3)cnc2n1 (stereo not given)    49.9

(P) CN(Cc1ccc(C(=O)NC(CCC(=O)O)C(=O)O)cc1)c1cnc2nc(N)nc(O)c2c1 (stereo not given)
(Q) Nc1nc(O)c2cc(NCc3ccc(C(=O)NC(CCC(=O)O)C(=O)O)cc3)cnc2n1 (stereo not given)
Select one. Lower IC50: P or Q Field: selected label. Fill in the label of the entry you choose.
Q

----------
Species on record: Sus scrofa
experiment.description: Compound was evaluated for the substrate activity for hog liver Folyl-polyglutamate synthase
property.name: Km (µM)

Reference set, count: 2
Nc1nc(O)c2c(n1)NCC(CCc1ccc(C(=O)NC(CCC(=O)O)C(=O)O)cc1)C2 (stereo not given)    17.5
Nc1nc(O)c2c(n1)NCC(NCc1ccc(C(=O)NC(CCC(=O)O)C(=O)O)cc1)C2 (stereo not given)    67.4

(A) CN(Cc1ccc(C(=O)NC(CCC(=O)O)C(=O)O)cc1)c1cnc2nc(N)nc(O)c2c1 (stereo not given)
(B) Nc1nc(O)c2cc(NCc3ccc(C(=O)NC(CCC(=O)O)C(=O)O)cc3)cnc2n1 (stereo not given)
For the pair A and B , which member has the lower Km number? Lab log: write the label of the selected item as the result.
A

----------
tested.on: Dihydrofolate reductase (Homo sapiens, UniProt P00374)
Sequence (P00374 whole entry): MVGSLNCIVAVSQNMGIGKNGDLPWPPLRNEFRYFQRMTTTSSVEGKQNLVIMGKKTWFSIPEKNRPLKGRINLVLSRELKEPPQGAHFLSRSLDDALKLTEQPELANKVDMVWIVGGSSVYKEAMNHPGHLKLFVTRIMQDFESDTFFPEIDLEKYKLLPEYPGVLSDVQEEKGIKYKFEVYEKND
experiment.description: Inhibition of dihydrofolate reductase (DHFR) in WIL2 cells
measurement.context: read-out: I50
pIC50: −log10 of the molar value.
property.name: pIC50

CN(Cc1ccc(C(=O)NC(CCC(=O)O)C(=O)O)cc1)c1cnc2nc(N)nc(O)c2c1 (configuration not stated)    6.60

(1) Nc1nc(O)c2cc(NCc3ccc(C(=O)NC(CCC(=O)O)C(=O)O)cc3)cnc2n1 (configuration not stated)
(2) Nc1nc(O)c2cc(N(C=O)Cc3ccc(C(=O)NC(CCC(=O)O)C(=O)O)cc3)cnc2n1 (configuration not stated)
Select one: 1 or 2 . Criterion: greater recorded pIC50. State the label of the item chosen.
1
(1: 6.68, 2: 5.71)

----------
Listed next: entries and their corresponding IC50.
tested.on: Dihydrofolate reductase (Homo sapiens, UniProt P00374)
experiment.description: Inhibition of dihydrofolate reductase (DHFR) in WIL2 cells
measurement.context: read-out: I50

Field: example entries. Status: answers known.
Nc1nc(N)c(CCCNc2ccc(C(=O)N[C@@H](CCC(=O)O)C(=O)O)cc2)c(O)n1    > 100 µM
Nc1nc(O)c2c(n1)NCC(NCc1ccc(C(=O)NC(CCC(=O)O)C(=O)O)cc1)C2 (centres undefined)    > 1000 µM
CN(Cc1ccc(C(=O)NC(CCC(=O)O)C(=O)O)cc1)C1CNc2nc(N)nc(O)c2C1 (centres undefined)    > 1000 µM

Please find the next compound below.
Entry Nc1nc(O)c2c(n1)NCC(CCc1ccc(C(=O)NC(CCC(=O)O)C(=O)O)cc1)C2 (centres undefined) : reported IC50 = ?
> 100 µM
